Tested on: Escherichia coli ATCC 25922
Type: cell-based
Conditions: ATCC 25922
Where a SMILES comes first, the peptide text is derived from it. [ ]: non-standard residue; d: D form. The star is where a group is joined. ξ: configuration not given here. Cha = N[C@@H](CC1CCCCC1)C(=O)O; Thr(3ξ) = CC(O)[C@H](N)C(=O)O; Decanoyl = CCCCCCCCCC(=O)*; Octanoyl = CCCCCCCC(=O)*; Dab = NCC[C@H](N)C(=O)O; Hexanoyl = CCCCCC(=O)*
reported endpoint: MIC

Query block: I am curious: what MIC value has been reported for CCCCCC(=O)N[C@@H](CCN)C(=O)N[C@H](C(=O)N[C@@H](CCN)C(=O)N[C@H](Cc1ccccc1)C(=O)N[C@@H](CC(C)C)C(=O)N[C@@H](CCN)C(=O)N[C@@H](C(=O)N[C@@H](CC(C)C)C(=O)N[C@@H](CO)C(N)=O)C(C)C)[C@@H](C)CC [Analogue 1] (Hexanoyl-[Dab]I[Dab][dF]L[Dab][dV]LS-NH2) ?
Result block: 8 to 16 µg/mL

Query block: I am curious: what MIC value has been reported for CCCCCCCCCC(=O)N[C@@H](CCN)C(=O)N[C@H](C(=O)N[C@H](C(=O)N[C@H](CC(C)C)C(=O)N[C@@H](CC(C)C)C(=O)N[C@@H](CCN)C(=O)N[C@@H](C(=O)N[C@@H](CC(C)C)C(=O)N[C@@H](CO)C(N)=O)C(C)C)C(C)O)[C@@H](C)CC (stereo partly drawn) [Analogue 13] (Decanoyl-[Dab]I[Thr(3ξ)][dL]L[Dab][dV]LS-NH2) ?
Result block: >32 µg/mL

Query block: I am curious: what MIC value has been reported for CC[C@H](C)[C@H](NC(=O)[C@H](CCN)NC(=O)[C@@H](N)CC1CCCCC1)C(=O)N[C@@H](CCN)C(=O)N[C@H](Cc1ccccc1)C(=O)N[C@@H](CC(C)C)C(=O)N[C@@H](CCN)C(=O)N[C@@H](C(=O)N[C@@H](CC(C)C)C(=O)N[C@@H](CO)C(N)=O)C(C)C [Analogue 16] (H-[Cha][Dab]I[Dab][dF]L[Dab][dV]LS-NH2) ?
Result block: 4 to 8 µg/mL

Query block: I am curious: what MIC value has been reported for CC(C)C[C@H](NC(=O)[C@@H](Cc1ccccc1)NC(=O)[C@H](CCN)NC(=O)[C@H](Cc1ccccc1)NC(=O)[C@H](CCN)NC(=O)[C@@H](N)CC1CCCCC1)C(=O)N[C@@H](CCN)C(=O)N[C@H](CC(C)C)C(=O)N[C@@H](Cc1ccccc1)C(=O)N[C@@H](CO)C(N)=O [Analogue 17] (H-[Cha][Dab]F[Dab][dF]L[Dab][dL]FS-NH2) ?
Result block: 0.5 to 1 µg/mL

Query block: I am curious: what MIC value has been reported for CCCCCCCC(=O)N[C@@H](CCN)C(=O)N[C@H](C(=O)N[C@@H](CCN)C(=O)N[C@H](Cc1ccccc1)C(=O)N[C@@H](CC(C)C)C(=O)N[C@@H](CCN)C(=O)N[C@@H](C(=O)N[C@@H](CC(C)C)C(=O)N[C@@H](CCN)C(N)=O)C(C)C)[C@@H](C)CC [Analogue 9] (Octanoyl-[Dab]I[Dab][dF]L[Dab][dV]L[Dab]-NH2) ?
Result block: 4 to 16 µg/mL

Query block: I am curious: what MIC value has been reported for CCCCCCCCCC(=O)N[C@@H](CCN)C(=O)N[C@H](C(=O)N[C@@H](CCN)C(=O)N[C@H](Cc1ccccc1)C(=O)N[C@@H](CC(C)C)C(=O)N[C@@H](CCN)C(=O)N[C@@H](C(=O)N[C@@H](CC(C)C)C(=O)N[C@@H](CO)C(N)=O)C(C)C)[C@@H](C)CC [Analogue 12] (Decanoyl-[Dab]I[Dab][dF]L[Dab][dV]LS-NH2) ?
Result block: 2 to 8 µg/mL
